Tested on: HCT-15
measurement kind: log10(GI50) (log10 of the value in µM)
Plainly stated, the numbers are log10 of GI50 given in µM.

Take a look at these entries with their results.
I am curious: what log10(GI50) value has been reported for CC(C)(CN1CCCCC1)C(=O)CC(SCCN)c1ccc(Cl)cc1 (stereo not given) ?
0.21

// query log10(GI50) value for entry CCC1C[N+]23CCc4c([nH]c5ccccc45)C2CC1CC3 (stereo not given)
1.83

Sample O=C(/C=C/c1ccc(Cl)c(Cl)c1)C1CCC(Cl)CC1 (stereo not given) — what was its log10(GI50)?
1.26

# get_value(readout='log10(GI50)', item= COc1cccc(C(=O)Oc2ccc(OS(=O)(=O)c3ccc(C)cc3)cc2)c1C#N )
1.87

Proceeding to the next compound to report its log10(GI50).
Given O=[N+]([O-])c1ccccc1S(=O)(=O)c1cc(Cl)cc2c1NCCC2 , state its recorded log10(GI50).
1.82

The measured values listed here are drawn from ChEMBL document CHEMBL1201862.
